target: Neuronal acetylcholine receptor; alpha3/beta4 (Rattus norvegicus, UniProt P04757+P12392); assay: Displacement of [3H]epibatidine from recombinant rat alpha-3-beta-4 nAChr in HEK293 cell line
Sequence (P04757 whole entry): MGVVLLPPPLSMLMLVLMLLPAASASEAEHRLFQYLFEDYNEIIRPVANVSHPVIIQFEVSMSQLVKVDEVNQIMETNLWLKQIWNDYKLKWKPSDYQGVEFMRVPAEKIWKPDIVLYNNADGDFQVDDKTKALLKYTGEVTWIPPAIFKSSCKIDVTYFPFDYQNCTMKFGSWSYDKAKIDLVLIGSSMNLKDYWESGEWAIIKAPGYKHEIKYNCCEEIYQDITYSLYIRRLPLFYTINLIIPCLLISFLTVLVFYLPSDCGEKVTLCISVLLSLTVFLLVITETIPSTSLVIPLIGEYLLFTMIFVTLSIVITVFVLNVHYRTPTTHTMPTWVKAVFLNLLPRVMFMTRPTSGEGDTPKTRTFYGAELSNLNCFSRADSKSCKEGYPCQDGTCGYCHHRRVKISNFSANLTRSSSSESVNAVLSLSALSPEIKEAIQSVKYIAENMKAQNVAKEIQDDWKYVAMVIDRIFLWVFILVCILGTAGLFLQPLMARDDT
Sequence (P12392 whole entry): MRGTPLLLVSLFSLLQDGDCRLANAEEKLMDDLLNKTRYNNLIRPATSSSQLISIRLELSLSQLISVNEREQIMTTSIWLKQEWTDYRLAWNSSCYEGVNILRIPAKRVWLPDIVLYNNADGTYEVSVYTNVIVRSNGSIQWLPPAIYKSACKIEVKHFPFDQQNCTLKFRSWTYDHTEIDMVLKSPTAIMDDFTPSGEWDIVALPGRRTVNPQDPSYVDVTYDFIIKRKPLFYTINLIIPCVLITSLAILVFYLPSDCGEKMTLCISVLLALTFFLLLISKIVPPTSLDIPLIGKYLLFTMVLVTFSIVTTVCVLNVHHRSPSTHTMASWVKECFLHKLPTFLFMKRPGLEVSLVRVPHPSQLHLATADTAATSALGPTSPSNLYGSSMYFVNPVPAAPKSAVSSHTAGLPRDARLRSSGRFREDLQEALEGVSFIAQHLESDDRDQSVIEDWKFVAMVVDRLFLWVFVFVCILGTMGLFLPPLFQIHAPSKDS
result.type: Ki

Worked set:
CN(C)Cc1c2n(c3ccccc13)Cc1c(CN(C)C)c3ccccc3n1C2: > 100 µM
C=CC[N+](C)(C)Cc1c2n(c3ccccc13)Cc1c(C[N+](C)(C)CC=C)c3ccccc3n1C2.[Br-].[Br-]: > 100 µM

We next turn to a different compound, shown below.
So the reported Ki for C[N+]12CC[C@@H]3[C@@H]4[C@@H]5[C@@H](OCC=C(C1)[C@@H]5C[C@@H]32)N1c2ccccc2[C@@]23CC[N+]5(C)CC6=CCO[C@H]([C@@H]([C@H]12)[C@H]6C[C@@H]35)N4c1ccccc1.[I-].[I-] (stereo partly drawn) , on Neuronal acetylcholine receptor; alpha3/beta4 (Rattus norvegicus, UniProt P04757+P12392), turned out to be 30 µM
